- SYSTEM: T1, mouse folate receptor alpha (mFRα), recombinant protein (mouse, UniProt P35846 25-232)
- T1 construct: Bought recombinant proteins (e.g. biotinylated, Acro Biosystems FO1-M82E9); also called mFOLR1; Ms FOLR1
- T1 sequence (P35846 25-232 limits assumed): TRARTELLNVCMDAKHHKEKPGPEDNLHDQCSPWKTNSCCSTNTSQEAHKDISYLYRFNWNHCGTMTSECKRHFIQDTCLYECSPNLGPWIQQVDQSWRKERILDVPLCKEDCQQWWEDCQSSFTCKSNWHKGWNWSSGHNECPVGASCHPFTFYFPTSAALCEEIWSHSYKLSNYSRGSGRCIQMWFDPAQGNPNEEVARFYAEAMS
- METHOD DESCRIPTION: BLI
MEASUREMENT KIND: koff (s⁻¹)
Kindly answer with a numeric value in s⁻¹, unit omitted.

Request: Find the recorded koff belonging to P01500087: P0150001 with A24L, S27A, M32P, N67E (VHH) VHH: EVQLVESGGGLVQPGGSLRLSCALSGAGFSGPIMGWYRQAPGKQRELVATVTSHGTTNYADSVKGRFTISRDNAKETVYLQMNSLRPEDTAVYYCNAHFPGIYWGKGTLVTVSS and report it.
Result: 0.00376

Request: Find the recorded koff belonging to P01500085: P0150001 with A24V, S27L, M32P (VHH) VHH: EVQLVESGGGLVQPGGSLRLSCAVSGLGFSGPIMGWYRQAPGKQRELVATVTSHGTTNYADSVKGRFTISRDNAKNTVYLQMNSLRPEDTAVYYCNAHFPGIYWGKGTLVTVSS and report it.
Result: 0.00176

Request: Find the recorded koff belonging to P01500014: P0150001 with M32P (VHH, Entry carries a His6 tag) VHH: EVQLVESGGGLVQPGGSLRLSCAASGSGFSGPIMGWYRQAPGKQRELVATVTSHGTTNYADSVKGRFTISRDNAKNTVYLQMNSLRPEDTAVYYCNAHFPGIYWGKGTLVTVSS and report it.
Result: 0.00241

Request: Find the recorded koff belonging to P01500083: P0150001 with A24V, S27L, M32I, N76D (VHH) VHH: EVQLVESGGGLVQPGGSLRLSCAVSGLGFSGIIMGWYRQAPGKQRELVATVTSHGTTNYADSVKGRFTISRDNAKDTVYLQMNSLRPEDTAVYYCNAHFPGIYWGKGTLVTVSS and report it.
Result: 0.0975

Request: Find the recorded koff belonging to P01500088: P0150001 with S27T, M32I (VHH) VHH: EVQLVESGGGLVQPGGSLRLSCAASGTGFSGIIMGWYRQAPGKQRELVATVTSHGTTNYADSVKGRFTISRDNAKNTVYLQMNSLRPEDTAVYYCNAHFPGIYWGKGTLVTVSS and report it.
Result: 0.0154

Request: Find the recorded koff belonging to P01500086: P0150001 with A24L, S27A, M32P (VHH) VHH: EVQLVESGGGLVQPGGSLRLSCALSGAGFSGPIMGWYRQAPGKQRELVATVTSHGTTNYADSVKGRFTISRDNAKNTVYLQMNSLRPEDTAVYYCNAHFPGIYWGKGTLVTVSS and report it.
Result: 0.0035

Request: Find the recorded koff belonging to P01500084: P0150001 with A24V, S27T, M32I, N76D (VHH) VHH: EVQLVESGGGLVQPGGSLRLSCAVSGTGFSGIIMGWYRQAPGKQRELVATVTSHGTTNYADSVKGRFTISRDNAKDTVYLQMNSLRPEDTAVYYCNAHFPGIYWGKGTLVTVSS and report it.
Result: 0.00649

Request: Find the recorded koff belonging to P01500006: 2HF042(Q1E, Q5V, A14P, V40A, L79Y, K83R, Q108L)-FLAG3-HIS6 (VHH, Entry includes the tags; also called P0150006) VHH: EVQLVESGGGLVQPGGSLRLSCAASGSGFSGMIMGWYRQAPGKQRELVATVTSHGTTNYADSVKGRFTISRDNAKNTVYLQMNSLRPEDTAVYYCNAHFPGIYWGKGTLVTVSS and report it.
Result: 0.00162
